Biological target: 20S proteasome (chymotrypsin-like activity) (Oryctolagus cuniculus, UniProt G1T4Q9)
Sequence (G1T4Q9 1-263): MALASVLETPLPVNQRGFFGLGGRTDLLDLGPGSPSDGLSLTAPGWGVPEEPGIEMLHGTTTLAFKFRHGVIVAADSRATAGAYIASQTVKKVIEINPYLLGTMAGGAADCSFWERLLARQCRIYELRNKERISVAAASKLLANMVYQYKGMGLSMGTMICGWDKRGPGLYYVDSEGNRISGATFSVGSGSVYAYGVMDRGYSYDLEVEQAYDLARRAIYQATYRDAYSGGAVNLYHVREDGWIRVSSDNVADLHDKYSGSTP
pIC50: −log10 of the molar value.
ATTRIBUTE_MEASURED: pIC50

[[record]]
compound = "CCOC(=O)CN(C)C1=[S+][Au-]([Br])([Br])[S]1 [AUL12, [AuBr2(ESDT)]]"
system_tested = "20S proteasome (chymotrypsin-like activity) (Oryctolagus cuniculus, UniProt G1T4Q9)"
meas_value = 5.95

